Reported IC50 is given for each of the following compounds.
- system.tested: HIV-1 protease (Human immunodeficiency virus type 1 group M subtype B (isolate HXB2) (HIV-1))
- experiment: HIV-1 protease inhibition assay (HPLC of hydrolysis product)
- Assay type: biochemical
- condition.set: read-out: HIV-1 protease inhibitive activity IC50
property.label: IC50 (µM)

>>> reading("CC(C)=CCOc1ccc([C@H]2C(=O)N(O)C(=O)[C@@H]2CC(C)C)cc1 (relative stereo)")
4.4
>>> reading("CC(C)=CCOc1ccc([C@@H]2C(=O)N(O)C(=O)[C@@H]2CC(C)C)cc1 (relative stereo)")
198
>>> reading("CC(C)=CCOc1ccc(C2C(=O)N(O)C(=O)/C2=C\\C(C)C)cc1 (stereo not drawn)")
16.6

Hello, the source for this data is patent US9115083B2, in case you need it.
